meta.source: patent US20230203041A1

- Target Desc: human Adenosine A2b receptor (Homo sapiens)
- Sequence (P29275 1-332): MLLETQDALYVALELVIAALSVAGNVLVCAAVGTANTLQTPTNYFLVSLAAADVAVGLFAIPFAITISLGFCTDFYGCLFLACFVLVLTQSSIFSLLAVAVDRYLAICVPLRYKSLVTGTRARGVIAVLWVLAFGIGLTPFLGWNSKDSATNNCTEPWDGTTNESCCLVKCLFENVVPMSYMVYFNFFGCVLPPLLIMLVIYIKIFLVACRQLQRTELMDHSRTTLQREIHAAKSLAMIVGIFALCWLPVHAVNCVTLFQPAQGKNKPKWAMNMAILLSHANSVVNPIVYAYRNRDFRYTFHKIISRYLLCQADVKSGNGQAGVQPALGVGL
Endpoint Name: Ki (nM)

Use the examples below as a reference point.
Cc1cc(-c2c(-c3cccc(C#N)c3)nn3ccc(C(=O)NC[C@@H](O)CO)nc23)cc(Cl)n1 :: 3
Cc1cc(-c2c(-c3cccc(C#N)c3)nn3ccc(C(=O)N[C@H](C)C(C)(C)O)nc23)cc(C)n1 :: 117
Cc1cc(-c2c(-c3cccc(C#N)c3)nn3ccc(N[C@H]4CCOC4)nc23)cc(Cl)n1 :: 27
Cc1cccnc1CNc1ccn2nc(-c3cccc(F)c3)cc2n1 :: 1200
Cc1cc(-c2c(-c3cccc(C#N)c3)nn3ccc(C(=O)NCC4(O)CCNC4)nc23)cc(Cl)n1 (stereo not shown) :: 13
Cc1cc(-c2c(-c3cccc(C#N)c3)nn3ccc(N[C@@H]4CCCNC4)nc23)cc(Cl)n1 :: 34
OCc1c(-c2ccco2)nn2ccc(NCc3ccccc3)nc12 :: 1460
N#Cc1c(-c2ccco2)nn2ccc(NCc3ccccc3)nc12 :: 74
Cc1cc(-c2c(-c3cccc(C#N)c3)nn3ccc(NC4CCNCC4)nc23)cc(Cl)n1 :: 3
Cc1cc(-c2c(-c3cccc(C#N)c3)nn3ccc(C(=O)NCC4CC(O)C4)nc23)cc(Cl)n1 (stereo not shown) :: 24

[a] Cc1cc(-c2c(-c3cccc(C#N)c3)nn3ccc(N)nc23)cc(C(N)=O)n1
[b] Cc1cc(-c2c(-c3cccc(C#N)c3)nn3ccc(C(=O)NCC(C)(O)CO)nc23)cc(C)n1 (stereo not shown)
[c] c1ccc(CNc2ccn3nc(-c4ccco4)cc3n2)cc1
[d] Cc1cc(-c2c(-c3cccc(C#N)c3)nn3ccc(N4CC(C(=O)O)C4)nc23)cc(Cl)n1
[e] Cc1cc(-c2c(-c3cccc(C#N)c3)nn3ccc(C(=O)N[C@H]4C[C@H](O)C4)nc23)cc(Cl)n1
Request: Your job: order these 5 records by Ki, ascending. Would you mind listing the labels in the order requested?
Result: b, e, a, d, c
